Reference source: ChEMBL document CHEMBL1152948

- Tested on: Mycobacterium tuberculosis
- PROCEDURE_TEXT: Antitubercular activity against Mycobacterium tuberculosis H37Rv by microdilution resazurin assay
- Format: functional
Would you mind telling me the reported MIC of each entry?
Numbers only, in µg/mL.

Reference set, count: 7
COMPOUND	SCALE_UNIT	MIC
Cc1ccc(CN(C)Cn2nc(-c3ccncc3)oc2=O)cc1	µg/mL	4
O=c1[nH]nc(-c2ccccn2)o1	µg/mL	4
CN(Cc1cccc2ccccc12)Cn1nc(-c2ccncc2)oc1=O	µg/mL	8
O=c1[nH]nc(-c2cccnc2)o1	µg/mL	32
CN(Cc1ccc(Cl)cc1)Cn1nc(-c2ccncc2)oc1=O	µg/mL	8
CC1CCCCN1Cn1nc(-c2cccnc2)oc1=O (stereo unspecified)	µg/mL	32
CN(Cc1ccccc1)Cn1nc(-c2ccncc2)oc1=O	µg/mL	8

Shifting focus to the compound that follows.
// returns MIC for O=c1[nH]nc(-c2ccccc2)o1 with Mycobacterium tuberculosis; value = 32
